- System: K562 CRISPRi cells
- Measurement Notes: Perturb-seq pooled growth measurement (sgRNA counts, growth phenotype γ, relative activity)
- Assay type: cell-based, human
- Condition Set: sequencing read counts; 10 days of growth (day twelve after transduction)
Measure: Perturb-seq pooled growth sgRNA counts, d10
Just the number.

See these solved cases before continuing.
DUT_+_48624411.23-P1P2_08: sgRNA targeting DUT, GCGAGCGAGGAGGCCACCGG, SEQ ID NO: 112 (listed as DNA, chemistry not fully specified)    2392
ATP5E_−_57607036.23-P1P2_14: sgRNA targeting ATP5E, GGTGTCCAGGGGCACTGTGT, SEQ ID NO: 155 (listed as DNA, chemistry not fully specified)    15257

Challenge: Given the entry EIF2S1_−_67827080.23-P1P2_00: sgRNA targeting EIF2S1, GAGCGAAGCGCACGCTGAGG, SEQ ID NO: 136 (listed as DNA, chemistry not fully specified) , report its measured Perturb-seq pooled growth sgRNA counts, d10.
Response given: 1318

Challenge: Given the entry CAD_+_27440280.23-P1P2_07: sgRNA targeting CAD, GGCTGGAGCGAAGCCGGGCG, SEQ ID NO: 103 (listed as DNA, chemistry not fully specified) , report its measured Perturb-seq pooled growth sgRNA counts, d10.
Response given: 4019

Challenge: Given the entry RAN_+_131356438.23-P1P2_00: sgRNA targeting RAN, GGCGGTCGCTGCGCTTAGGG, SEQ ID NO: 69 (listed as DNA, chemistry not fully specified) , report its measured Perturb-seq pooled growth sgRNA counts, d10.
Response given: 8936
